# measured.on: T1, interleukin 8 (CXCL8) (100-175: Shenandoah Biotechnology, Inc.) (UniProt P10145 28-99)
# T1 construct: the antibodies tested are mouse anti-human IL-8 antibodies; also called IL-8
# T1 sequence (looked up): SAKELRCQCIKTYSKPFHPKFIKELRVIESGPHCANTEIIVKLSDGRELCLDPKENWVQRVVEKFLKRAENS
# method.description: SPR (Biacore 8K); affinity ratio with the original antibody as 1.0
value.type: KD ratio
Enter the number alone.

So what's the measured KD ratio for this one? R5 variant of anti-IL-8 antibody (clone 146-1) (Fab, V domains shown, not shown: a dimerising Fc or GST, Light chain positions 63, 65, 67, 70, 72 (Chothia) changed to Arg; Fab) VH: EVQLVESGGGLVKPGGSLKLSCAASGFTFSSYAMSWVRQTPEKRLEWVATISNGGSYTYYPDSLKGRFTISRDNAKNTLYLQMSSLRSEDTAIYYCARGITGGVYFDYWGQGTTLTVSS VL: DIQMTQSPASLSASVGETVTITCRASENIYSYLAWYQQKQGKSPHLLVYDAETLAEGVPSRFRGRGRGTRFRLKINSLQPEDFGSYYCQHHYGTPWTFGGGTKLEIKR
6.4

So what's the measured KD ratio for this one? R3 variant of anti-IL-8 antibody (clone 166-1) (Fab, V domains shown, not shown: a dimerising Fc or GST, Light chain positions 63, 65, 67 (Chothia) changed to Arg; Fab) VH: EVKLVESGGGLVKPGGSLKLSCAASGFTFNNYAMSWVRQTPEKRLEWVASISSGGNTYYPDSVKGRFTLSRDNARNILYLQMSRLRSEDTAMYYCARDKLRLPNWYFDVWGAGTTVTVSS VL: DIVLTQSPPSLAVSLGQRATISCKASQSVDYDGDSYMNWYQQKPGQPPKVLIYGASNLESGIPARFRGRGRGTDFTLNIYPVEEEDAATYYCQQSNEDPPTFGGGTKLEIKR
1.4

So what's the measured KD ratio for this one? R4 variant of anti-IL-8 antibody (clone 146-1) (Fab, V domains shown, not shown: a dimerising Fc or GST, Light chain positions 63, 65, 67, 70 (Chothia) changed to Arg; Fab) VH: EVQLVESGGGLVKPGGSLKLSCAASGFTFSSYAMSWVRQTPEKRLEWVATISNGGSYTYYPDSLKGRFTISRDNAKNTLYLQMSSLRSEDTAIYYCARGITGGVYFDYWGQGTTLTVSS VL: DIQMTQSPASLSASVGETVTITCRASENIYSYLAWYQQKQGKSPHLLVYDAETLAEGVPSRFRGRGRGTRFSLKINSLQPEDFGSYYCQHHYGTPWTFGGGTKLEIKR
4.9

So what's the measured KD ratio for this one? R4 variant of anti-IL-8 antibody (clone 166-1) (Fab, V domains shown, not shown: a dimerising Fc or GST, Light chain positions 63, 65, 67, 70 (Chothia) changed to Arg; Fab) VH: EVKLVESGGGLVKPGGSLKLSCAASGFTFNNYAMSWVRQTPEKRLEWVASISSGGNTYYPDSVKGRFTLSRDNARNILYLQMSRLRSEDTAMYYCARDKLRLPNWYFDVWGAGTTVTVSS VL: DIVLTQSPPSLAVSLGQRATISCKASQSVDYDGDSYMNWYQQKPGQPPKVLIYGASNLESGIPARFRGRGRGTRFTLNIYPVEEEDAATYYCQQSNEDPPTFGGGTKLEIKR
2.8

So what's the measured KD ratio for this one? mouse anti-human IL-8 antibody (clone 166-1), original (unmodified) (Fab, V domains shown, not shown: a dimerising Fc or GST, Fab; the light entry holds only the variable domain; a His tag is implied by Ni-NTA purification but not described; also called Anti-IL-8 antibody (clone 166-1)) VH: EVKLVESGGGLVKPGGSLKLSCAASGFTFNNYAMSWVRQTPEKRLEWVASISSGGNTYYPDSVKGRFTLSRDNARNILYLQMSRLRSEDTAMYYCARDKLRLPNWYFDVWGAGTTVTVSS VL: DIVLTQSPPSLAVSLGQRATISCKASQSVDYDGDSYMNWYQQKPGQPPKVLIYGASNLESGIPARFSGSGSGTDFTLNIYPVEEEDAATYYCQQSNEDPPTFGGGTKLEIKR
1
